Just for reference, paper PMC10709440 is where these values come from.

target: Drosophila OR98a (Drosophila melanogaster); construct: expressed in transfected cells; assay: Calcium ion fluorescence (GCaMP6) assay, OR98a stable HEK293 cell line; assay type: cell-based; settings: concentration 100; normalized fluorescence change, values below 0.05 threshold given as 0
Sequence (Q9VAZ3 whole entry, one chain of several): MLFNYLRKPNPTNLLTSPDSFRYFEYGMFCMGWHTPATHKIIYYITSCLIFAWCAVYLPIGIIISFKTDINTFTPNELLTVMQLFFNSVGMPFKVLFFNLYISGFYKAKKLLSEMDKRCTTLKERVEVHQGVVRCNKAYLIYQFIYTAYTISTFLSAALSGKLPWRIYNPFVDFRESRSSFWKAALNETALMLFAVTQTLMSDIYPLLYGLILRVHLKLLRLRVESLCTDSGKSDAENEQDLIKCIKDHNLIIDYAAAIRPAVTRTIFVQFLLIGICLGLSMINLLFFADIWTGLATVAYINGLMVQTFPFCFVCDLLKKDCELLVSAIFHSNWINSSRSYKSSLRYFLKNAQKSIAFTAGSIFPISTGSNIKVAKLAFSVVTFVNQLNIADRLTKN
Each item that follows carries a reported DF norm AVERAGE OR98a.
No unit in the answer, only the number.

CC1=CCC[C@@]2(C)[C@@H]3CC[C@]12CC3(C)C [(−)-α-neoclovene] :: 0
COc1cccc(OC)c1 :: 0
C=C1[C@H]2CC[C@@H]3[C@H]2C(C)(C)CCC[C@]13C [(+)-longifolene] :: 0
Cc1ccc(O)cc1 :: 0
C=CC(O)C/C=C\CC (stereo not drawn) :: 0.07281
C=C1CC[C@H]2O[C@]2(C)CC[C@@H]2[C@@H]1CC2(C)C [(-)-caryophyllene oxide] :: 0
CCCCCC(=O)CC :: 0.1573
CCCCCC(C)O (stereo not drawn) :: 0.1574
C=C(C)C1CCC2(C)OC2C1 (single isomer, unassigned; (+)) [(+)-limonene oxide] :: 0
CCCCCO :: 0

Give DF norm AVERAGE OR98a (Drosophila OR98a (Drosophila melanogaster)) of the following compound: CCCCCC(O)CC (stereo not drawn)
0.1274

Give DF norm AVERAGE OR98a (Drosophila OR98a (Drosophila melanogaster)) of the following compound: CCCC(O)CC (stereo not drawn)
0

---

biological target: Drosophila OR71a (Drosophila melanogaster); construct: expressed in transfected cells; experiment: cell-based; parameters: GCaMP6 calcium fluorescence in stable HEK293 OR+ORCO lines; peak dF normalised to 50 uM VUAA1 (=1); details: HEK293; relative to 50 uM VUAA1 response; below 0.05 set to 0; read-out: % activation
Sequence (Q9VUK5 whole entry, one chain of several): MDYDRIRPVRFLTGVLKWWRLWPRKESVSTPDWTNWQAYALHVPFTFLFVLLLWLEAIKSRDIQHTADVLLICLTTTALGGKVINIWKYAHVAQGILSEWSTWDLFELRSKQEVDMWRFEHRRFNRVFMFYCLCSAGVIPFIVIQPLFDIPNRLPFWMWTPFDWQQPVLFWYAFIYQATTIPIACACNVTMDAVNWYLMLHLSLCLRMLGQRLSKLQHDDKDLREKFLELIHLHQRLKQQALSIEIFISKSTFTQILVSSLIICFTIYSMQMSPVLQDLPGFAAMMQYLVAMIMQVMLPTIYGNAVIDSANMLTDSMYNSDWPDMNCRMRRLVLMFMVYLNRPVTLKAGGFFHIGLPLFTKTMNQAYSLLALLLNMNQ
MEASUREMENT KIND: activity at 10 µM (%)
Note: unit % is implicit; provide only the numeric part.

Cc1ccc(C)cc1 [p-xylene] :: 6.15

Give activity at 10 µM (Drosophila OR71a (Drosophila melanogaster)) of the following molecule: C=C1[C@H]2CC[C@@H]3[C@H]2C(C)(C)CCC[C@]13C [(+)-longifolene]
0

Give activity at 10 µM (Drosophila OR71a (Drosophila melanogaster)) of the following molecule: C=C1CC[C@@]23C[C@@H]1C(C)(C)[C@@H]2CC[C@H]3C [(+)-beta-cedrene]
0

Give activity at 10 µM (Drosophila OR71a (Drosophila melanogaster)) of the following molecule: C=C(C)C1CCC2(C)OC2C1 (single isomer, unassigned; (+)) [(+)-limonene oxide]
0

Give activity at 10 µM (Drosophila OR71a (Drosophila melanogaster)) of the following molecule: C=C(C)[C@H]1CC=C(C)CC1 [(R)-(+)-limonene]
0

---

Each item that follows carries a reported activation at 100 µM.
Biological target: Drosophila OR47a (Drosophila melanogaster)
Construct: expressed in transfected cells
Sequence (P81921 1-385): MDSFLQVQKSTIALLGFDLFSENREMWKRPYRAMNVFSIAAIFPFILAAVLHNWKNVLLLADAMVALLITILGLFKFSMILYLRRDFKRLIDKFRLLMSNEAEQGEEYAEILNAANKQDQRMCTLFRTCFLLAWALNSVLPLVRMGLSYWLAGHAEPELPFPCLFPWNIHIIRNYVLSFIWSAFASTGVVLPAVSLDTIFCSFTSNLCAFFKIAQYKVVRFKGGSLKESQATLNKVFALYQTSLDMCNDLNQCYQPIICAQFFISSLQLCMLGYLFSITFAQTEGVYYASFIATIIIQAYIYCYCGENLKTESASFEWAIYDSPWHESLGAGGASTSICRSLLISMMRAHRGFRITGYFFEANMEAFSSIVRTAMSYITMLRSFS
Sequence (Q9VNB5 1-486 partner): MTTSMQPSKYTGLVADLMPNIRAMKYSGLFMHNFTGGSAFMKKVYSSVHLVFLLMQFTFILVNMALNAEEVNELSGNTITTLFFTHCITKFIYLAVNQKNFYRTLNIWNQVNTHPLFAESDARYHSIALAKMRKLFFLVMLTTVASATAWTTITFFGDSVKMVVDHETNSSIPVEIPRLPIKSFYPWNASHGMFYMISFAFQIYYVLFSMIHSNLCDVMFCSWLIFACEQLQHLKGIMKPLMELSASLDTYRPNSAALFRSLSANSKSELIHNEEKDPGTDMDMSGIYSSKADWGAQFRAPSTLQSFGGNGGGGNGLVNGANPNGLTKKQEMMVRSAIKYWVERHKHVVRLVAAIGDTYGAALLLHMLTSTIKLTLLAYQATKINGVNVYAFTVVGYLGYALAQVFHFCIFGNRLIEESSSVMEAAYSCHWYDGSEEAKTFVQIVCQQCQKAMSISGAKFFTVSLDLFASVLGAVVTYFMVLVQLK
Test: Calcium ion fluorescence (GCaMP6) assay, OR47a stable HEK293 cell line
Format: cell-based
Details: HEK293, read-out: OR47a response (VUAA1-normalized response)
Note: unit % is implicit; provide only the numeric part.

C=C1CCC2CC1C2(C)C (stereo not drawn) [beta-pinene] :: 0
CC1=CCC2C(C1)C2(C)C (stereo not drawn) [3-carene] :: 0
CCCC(O)CC (stereo not drawn) [3-hexanol] :: 11

Look at this molecule and give its reported activation at 100 µM. CC(=O)OCC(C)C [isobutyl acetate]
65

Look at this molecule and give its reported activation at 100 µM. CCOC(=O)CC [ethyl propionate]
0
